SI over KDM5B, 3A values for the compounds below.
# assayed_system: KDM3A (Homo sapiens, UniProt Q9Y4C1)
# Sequence (Q9Y4C1 1-1321): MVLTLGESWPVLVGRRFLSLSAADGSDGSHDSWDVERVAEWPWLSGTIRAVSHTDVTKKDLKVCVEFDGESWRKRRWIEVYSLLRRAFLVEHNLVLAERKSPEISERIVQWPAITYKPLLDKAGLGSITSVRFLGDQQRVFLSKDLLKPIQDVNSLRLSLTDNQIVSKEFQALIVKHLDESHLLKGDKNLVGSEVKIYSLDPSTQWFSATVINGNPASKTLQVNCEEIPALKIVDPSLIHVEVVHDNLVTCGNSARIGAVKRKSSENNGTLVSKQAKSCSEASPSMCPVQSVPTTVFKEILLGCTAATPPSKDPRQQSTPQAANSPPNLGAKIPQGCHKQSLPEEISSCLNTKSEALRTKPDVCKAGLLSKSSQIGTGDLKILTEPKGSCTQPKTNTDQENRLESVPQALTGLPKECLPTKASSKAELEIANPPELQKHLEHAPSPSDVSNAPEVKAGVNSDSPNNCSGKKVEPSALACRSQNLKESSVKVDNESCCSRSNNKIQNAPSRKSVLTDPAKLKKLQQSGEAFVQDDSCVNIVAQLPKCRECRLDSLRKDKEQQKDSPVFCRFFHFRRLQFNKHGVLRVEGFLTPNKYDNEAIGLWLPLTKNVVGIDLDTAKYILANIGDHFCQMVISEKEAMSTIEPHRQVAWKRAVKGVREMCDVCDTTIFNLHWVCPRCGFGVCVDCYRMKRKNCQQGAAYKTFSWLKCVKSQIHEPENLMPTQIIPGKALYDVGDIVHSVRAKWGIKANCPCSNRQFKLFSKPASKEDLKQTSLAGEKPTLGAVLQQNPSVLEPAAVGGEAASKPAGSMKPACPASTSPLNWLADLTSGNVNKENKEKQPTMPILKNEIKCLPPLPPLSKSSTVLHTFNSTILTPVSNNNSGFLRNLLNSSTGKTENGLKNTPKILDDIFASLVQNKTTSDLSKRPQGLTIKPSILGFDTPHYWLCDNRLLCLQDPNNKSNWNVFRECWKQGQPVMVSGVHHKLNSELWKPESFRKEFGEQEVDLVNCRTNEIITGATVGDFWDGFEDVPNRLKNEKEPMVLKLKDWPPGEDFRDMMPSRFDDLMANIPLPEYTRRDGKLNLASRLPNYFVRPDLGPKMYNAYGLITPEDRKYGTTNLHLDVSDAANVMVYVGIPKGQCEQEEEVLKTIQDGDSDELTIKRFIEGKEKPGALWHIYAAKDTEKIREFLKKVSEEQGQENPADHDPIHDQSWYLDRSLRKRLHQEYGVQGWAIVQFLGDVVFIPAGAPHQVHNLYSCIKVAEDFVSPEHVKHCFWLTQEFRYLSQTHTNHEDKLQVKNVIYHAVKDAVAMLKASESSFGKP
# assay_comment: KDM AlphaScreen selectivity panel, KDM3A
# Assay type: biochemical
# cond: KDM3A IC50/KDM5B IC50
# Method: A panel of JmjC KDMs was tested by AlphaScreen to determine the selectivity of the compounds (Table S2). […] KDM alpha screen selectivity Inhibition of histone demethylases was assessed using the histone demethylase AlphaScreen assay (Amplified Luminescence Proximity Homogenous Assay) as previously reported.[4] The basis of this assay for lysine demethylases have been widely described.[5] […]

{"columns": ["compound", "assayed_system", "SI over KDM5B, 3A"],
 "data": [
  ["CC(C)c1c(-c2cnn(C3CCN(C(=O)CCl)CC3)c2)[nH]c2c(C#N)cnn2c1=O [Compound 11]", "KDM3A (Homo sapiens, UniProt Q9Y4C1)", 1007],
  ["C=CC(=O)N1CCC(n2cc(-c3[nH]c4c(C#N)cnn4c(=O)c3C(C)C)cn2)CC1 [Compound 10]", "KDM3A (Homo sapiens, UniProt Q9Y4C1)", 547],
  ["C=CC(=O)NCCOc1ccc(-c2[nH]c3c(C#N)cnn3c(=O)c2C(C)C)cc1 [Compound 9]", "KDM3A (Homo sapiens, UniProt Q9Y4C1)", 264],
  ["CN(CCc1cnn(-c2nccc3c(=O)[nH]cnc23)c1)Cc1cccc(NC(=O)CCl)c1 [Compound 5]", "KDM3A (Homo sapiens, UniProt Q9Y4C1)", 260],
  ["CC(C)c1c(-c2cnn(CCNC(=O)CCl)c2)[nH]c2c(C#N)cnn2c1=O [Compound 7]", "KDM3A (Homo sapiens, UniProt Q9Y4C1)", 806]
]}
